B1: library; a variant is named by its letters at N, in order (parent)
chain: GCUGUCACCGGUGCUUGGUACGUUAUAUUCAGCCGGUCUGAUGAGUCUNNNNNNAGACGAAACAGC

Variants of: B1
ASSAY SUMMARY: FACS-Seq fitted mean relative fluorescence mCherry/BFP without ligand (log10 relative fluorescence); HEK293T overexpressing SLC46A1; higher = higher reporter protein expression
TEST PARAMETERS: without (6R,S)-folinic acid; ligand present: no
RECORDED ENDPOINT: FACS-Seq fitted mean (log10)
Just the number, please, no unit after it.

For orientation, consider the following solved cases.
| MUTANT ID | FACS-Seq fitted mean (log10) |
| --- | --- |
| GUGGGA | -0.679 |
| UUACGU | 0.339 |
| GGACAA | 0.352 |

For "GUUCAA" the variant record lists FACS-Seq fitted mean (log10) as 0.497

For "CGUAUU" the variant record lists FACS-Seq fitted mean (log10) as -0.147

For "UGCGAU" the variant record lists FACS-Seq fitted mean (log10) as 0.213

For "CACAUA" the variant record lists FACS-Seq fitted mean (log10) as 0.25

For "AUUUUA" the variant record lists FACS-Seq fitted mean (log10) as 0.513

For "GAGGGU" the variant record lists FACS-Seq fitted mean (log10) as 0.338

For "AGUUGU" the variant record lists FACS-Seq fitted mean (log10) as 0.365

For "UCAAAC" the variant record lists FACS-Seq fitted mean (log10) as 0.446
